Biological target: Trypsin (Sus scrofa, UniProt P00761)
Sequence (P00761 9-231): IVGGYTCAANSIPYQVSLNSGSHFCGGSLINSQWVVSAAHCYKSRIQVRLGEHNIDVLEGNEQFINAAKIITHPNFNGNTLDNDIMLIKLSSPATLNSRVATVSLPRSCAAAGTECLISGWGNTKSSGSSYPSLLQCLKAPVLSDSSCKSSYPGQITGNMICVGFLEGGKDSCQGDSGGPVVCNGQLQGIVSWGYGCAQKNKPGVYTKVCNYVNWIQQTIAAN
pIC50: −log10 of the molar value.
experimental readout: pIC50

Query pIC50 on Trypsin (Sus scrofa, UniProt P00761) for Nc1ccc(CNC(=O)Cn2c(Cc3ccccc3)c(Cl)nc(NCCc3ccccc3)c2=O)cn1
< 4.52

###

Molecular target: UniProt P00761
Test: Trypsin Assay
Details: % inhibition at 30 uM (cells with % or %@30, bare 0)
experimental readout: IC50 or % Inhibition Trpysin II (30 uM) (%)
Use % as the unit, but write only the number.

Here is how some compounds turned out for IC50 or % Inhibition Trpysin II (30 uM).
substance smiles	IC50 or % Inhibition Trpysin II (30 uM), %
N=C(N)c1ccc(CNC(=O)Cn2c(-c3ccccc3)c(Cl)nc(NCC3CC3)c2=O)cc1	43
N=C(N)NCC#CCNC(=O)Cn1c(-c2ccccc2)cnc(NCCc2ccccc2)c1=O	30

# next compound below
Please look up its IC50 or % Inhibition Trpysin II (30 uM): CC(C)Nc1nc(Cl)c(-c2cccc([N+](=O)[O-])c2)n(CC(=O)NCc2ccc(C(N)=NO)cc2)c1=O
10

###

Target: Human factor Xa (Homo sapiens, UniProt P00742)
Construct: leads from XII to XIIa to XIa to IXa and to the conversion of X to Xa; purchased Enzyme Research Laboratories, South Bend IN
Sequence (P00742 235-488 limits assumed): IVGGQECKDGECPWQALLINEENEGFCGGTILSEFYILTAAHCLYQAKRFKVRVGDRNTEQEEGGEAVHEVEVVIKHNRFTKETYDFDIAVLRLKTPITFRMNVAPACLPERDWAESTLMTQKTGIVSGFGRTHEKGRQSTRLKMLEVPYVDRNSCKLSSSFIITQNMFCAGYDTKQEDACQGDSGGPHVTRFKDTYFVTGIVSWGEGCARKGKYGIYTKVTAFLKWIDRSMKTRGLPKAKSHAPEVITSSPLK
Sequence (P00742 41-179 limits assumed): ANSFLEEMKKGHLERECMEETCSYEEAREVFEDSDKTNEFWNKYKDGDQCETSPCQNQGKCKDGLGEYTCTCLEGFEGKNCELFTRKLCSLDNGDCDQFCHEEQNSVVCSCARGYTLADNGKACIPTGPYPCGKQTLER
Experiment: Xa Assay
Format: biochemical
Details: 100 µM
experimental readout: % Inhibition Factor Xa (100 µM)
Express your answer as a number followed by its unit.

molecule	target desc	assay result
COc1ccc(-c2c(Cl)nc(NCCc3cccc(Cl)c3)c(=O)n2CC(=O)NCCc2ccncc2)cc1 [Example E-0035]	Human factor Xa (Homo sapiens, UniProt P00742)	0%
O=C(Cn1c(-c2ccc(Cl)cc2)c(Cl)nc(NCCc2cccnc2)c1=O)NCCc1ccncc1 [Example E-0029]	Human factor Xa (Homo sapiens, UniProt P00742)	0%
COc1ccc(-c2c(Cl)nc(NCCc3ccc(Cl)cc3)c(=O)n2CC(=O)NCCc2ccncc2)cc1 [Example E-0106]	Human factor Xa (Homo sapiens, UniProt P00742)	3%
O=C(Cn1c(-c2ccc(Cl)cc2)c(Cl)nc(NCc2ccncc2)c1=O)NCCc1ccncc1 [Example E-0032]	Human factor Xa (Homo sapiens, UniProt P00742)	0%
O=C(Cn1c(-c2ccc(Cl)cc2)c(Cl)nc(NCCc2cccc(Cl)c2)c1=O)NCCc1ccncc1 [Example E-0027]	Human factor Xa (Homo sapiens, UniProt P00742)	0%

Any idea what % Inhibition Factor Xa (100 µM) was measured for O=C(Cn1c(-c2ccc(Cl)cc2)c(Cl)nc(NCc2ccccc2)c1=O)NCCc1ccncc1 [Example E-0025] ?
0%

# input molecule: O=C(Cn1c(-c2cccc(Cl)c2)c(Cl)nc(NCCc2cccc(Cl)c2)c1=O)NCCc1cccnc1 [Example E-0092] ; wanted: its % Inhibition Factor Xa (100 µM)
3%

###

Molecular target: Human factor Xa (Homo sapiens)
Construct: leads from XII to XIIa to XIa to IXa and to the conversion of X to Xa; purchased Enzyme Research Laboratories, South Bend IN
Assay: Xa Assay
Assay type: biochemical
Conditions: % inhibition at 30 µM (cells with % or %@30, bare 0)
Rule: measured IC50 or % Inhibition Factor Xa (30 µM) below 9% gets yes; anything equal to or greater than 9% gets no.

compound	qualitative label
COC(=O)c1cccc(-c2c(Cl)nc(NC(C)C)c(=O)n2CC(=O)NCc2ccc(C(=N)N)cc2)c1	no
N=C(N)c1ccc(CNC(=O)Cn2c(-c3ccc4c(c3)OCO4)c(Cl)nc(NCCc3ccc(Cl)cc3)c2=O)cc1	no
N=C(N)c1ccc(CNC(=O)Cn2c(-c3cccc(Cl)c3)c(Cl)nc(NCCc3ccncc3)c2=O)cc1	no
N=C(N)c1ccc(CNC(=O)Cn2c(-c3ccccc3)c(Cl)nc(NCc3ccccc3)c2=O)cc1	no

Record CC(C)(C)CCNc1nc(Cl)c(-c2ccccc2)n(CC(=O)NCc2ccc(C(=N)N)cc2)c1=O : is its IC50 or % Inhibition Factor Xa (30 µM) strictly below 9%?
yes

# strict comparison: is reported IC50 or % Inhibition Factor Xa (30 µM) < 9%? input = CCCCNc1nc(Cl)c(-c2ccccc2)n(CC(=O)NCc2ccc(C(=N)N)cc2)c1=O [1512-14]
yes

###

Target: TF-VIIa (Homo sapiens)
Construct: An extrinsic pathway is initiated by the conversion of coagulation factor VII to VIIa by Xa; purchased American Diagnostica, Greenwich CT; Soluble TF was made in house in E. coli
Experiment: TF-VIIa Assay
Format: biochemical
Settings: % inhibition at 30 µM (cells with % or %@30, bare 0)
experimental readout: IC50 or % Inhibition TF-VIIa (30 µM) (%)
The reply should be a number in %, with the unit left off.

substance smiles	IC50 or % Inhibition TF-VIIa (30 µM) [%]
N=C(N)c1ccc(CNC(=O)Cn2c(-c3ccc4c(c3)OCO4)c(Cl)nc(NCCN3CCOCC3)c2=O)cc1	34
COc1ccc(-c2c(Cl)nc(NCCc3cccnc3)c(=O)n2CC(=O)NCc2ccc(C(=N)N)cc2)cc1	40

Given N=C(N)c1ccc(CNC(=O)Cn2c(-c3ccccc3)c(Cl)nc(NCc3ccc(Cl)cc3Cl)c2=O)cc1 , state its recorded IC50 or % Inhibition TF-VIIa (30 µM).
45

# IC50 or % Inhibition TF-VIIa (30 µM) lookup, item COc1ccc(-c2c(Cl)nc(NCCN3CCOCC3)c(=O)n2CC(=O)NCc2ccc(C(=N)N)cc2)cc1
11

Could you share which IC50 or % Inhibition TF-VIIa (30 µM) value was measured for N=C(N)c1ccc(CNC(=O)Cn2c(-c3ccccc3)c(Cl)nc(NCC(F)(F)F)c2=O)cc1 ?
48

Reported IC50 or % Inhibition TF-VIIa (30 µM), compound N=C(N)c1ccc(CNC(=O)Cn2c(-c3ccccc3)c(Cl)nc(NCc3cccc(OC(F)(F)F)c3)c2=O)cc1 : ____
40

Could you tell me which IC50 or % Inhibition TF-VIIa (30 µM) is on file for CCCCNc1nc(Cl)c(-c2ccccc2)n(CC(=O)NCc2ccc(C(=N)N)cc2)c1=O ?
33

###

Target: TF-VIIa (Homo sapiens, UniProt P08709)
Construct: An extrinsic pathway is initiated by the conversion of coagulation factor VII to VIIa by Xa; purchased American Diagnostica, Greenwich CT; Soluble TF was made in house in E. coli
Sequence (P08709 213-466 limits assumed): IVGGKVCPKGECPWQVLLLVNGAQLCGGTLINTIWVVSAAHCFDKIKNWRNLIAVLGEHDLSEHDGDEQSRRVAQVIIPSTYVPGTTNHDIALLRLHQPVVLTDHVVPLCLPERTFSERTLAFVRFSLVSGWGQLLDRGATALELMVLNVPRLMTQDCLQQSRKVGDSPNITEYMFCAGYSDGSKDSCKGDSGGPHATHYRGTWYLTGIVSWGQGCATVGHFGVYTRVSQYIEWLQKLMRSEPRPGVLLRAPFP
Sequence (P08709 61-212 limits assumed): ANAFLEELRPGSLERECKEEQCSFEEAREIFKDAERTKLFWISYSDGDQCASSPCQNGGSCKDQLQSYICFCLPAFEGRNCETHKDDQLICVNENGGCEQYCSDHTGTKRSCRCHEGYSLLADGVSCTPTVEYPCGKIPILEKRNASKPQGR
Sequence (P13726 33-251 partner limits assumed): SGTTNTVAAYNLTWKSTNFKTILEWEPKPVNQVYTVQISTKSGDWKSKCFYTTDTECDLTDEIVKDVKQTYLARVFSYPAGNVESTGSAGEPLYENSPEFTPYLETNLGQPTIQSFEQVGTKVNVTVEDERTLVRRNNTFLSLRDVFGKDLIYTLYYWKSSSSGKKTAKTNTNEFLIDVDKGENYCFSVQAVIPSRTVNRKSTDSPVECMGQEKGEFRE
Assay: TF-VIIa Assay
Format: biochemical
Details: % inhibition at 30 µM (cells with % or %@30, bare 0)
experimental readout: IC50 or % Inhibition TF-VIIa (30 µM)

compound	target desc	experimental readout	assay result
N=C(N)NCC#CCNC(=O)Cn1c(-c2ccccc2)cnc(NCCc2ccccc2)c1=O	TF-VIIa (Homo sapiens, UniProt P08709)	IC50 or % Inhibition TF-VIIa (30 µM)	5%
CC(=O)Nc1cccc(-c2c(Cl)nc(NC(C)C)c(=O)n2CC(=O)NCCc2ccc(C(=N)N)cc2)c1	TF-VIIa (Homo sapiens, UniProt P08709)	IC50 or % Inhibition TF-VIIa (30 µM)	32%
Nc1cccc(-c2c(Cl)nc(NC3CCC3)c(=O)n2CC(=O)NCCc2ccccc2)c1	TF-VIIa (Homo sapiens, UniProt P08709)	IC50 or % Inhibition TF-VIIa (30 µM)	5%@30
N=C(N)c1ccc(CNC(=O)Cn2c(-c3ccccc3)c(Cl)nc(NC3Cc4ccccc4C3)c2=O)cc1	TF-VIIa (Homo sapiens, UniProt P08709)	IC50 or % Inhibition TF-VIIa (30 µM)	7%
N=C(N)c1ccc(CNC(=O)Cn2c(-c3ccc(Cl)cc3)c(Cl)nc(NCc3ccncc3)c2=O)cc1	TF-VIIa (Homo sapiens, UniProt P08709)	IC50 or % Inhibition TF-VIIa (30 µM)	33%
N=C(N)c1ccc(CNC(=O)Cn2c(-c3ccc(-c4ccccc4)cc3)c(Cl)nc(NCCc3ccccc3)c2=O)cc1	TF-VIIa (Homo sapiens, UniProt P08709)	IC50 or % Inhibition TF-VIIa (30 µM)	6%
N=C(N)c1ccc(CNC(=O)Cn2c(-c3ccc(C(F)(F)F)cc3)c(Cl)nc(NC3CCC3)c2=O)cc1	TF-VIIa (Homo sapiens, UniProt P08709)	IC50 or % Inhibition TF-VIIa (30 µM)	32%
Cc1cc(Cl)cc(Cl)c1CNc1nc(Cl)c(-c2ccccc2)n(CC(=O)NCc2ccc(C(=N)N)cc2)c1=O	TF-VIIa (Homo sapiens, UniProt P08709)	IC50 or % Inhibition TF-VIIa (30 µM)	27%
Cc1cccc(Cl)c1CNc1nc(Cl)c(-c2ccccc2)n(CC(=O)NCc2ccc(C(=N)N)cc2)c1=O	TF-VIIa (Homo sapiens, UniProt P08709)	IC50 or % Inhibition TF-VIIa (30 µM)	43%
N=C(N)c1ccc(CNC(=O)Cn2c(-c3ccccc3)c(Cl)nc(NCc3cccc4ccccc34)c2=O)cc1	TF-VIIa (Homo sapiens, UniProt P08709)	IC50 or % Inhibition TF-VIIa (30 µM)	38%

Can you look up the measured IC50 or % Inhibition TF-VIIa (30 µM) of COc1ccc(-c2c(Cl)nc(NCCc3ccncc3)c(=O)n2CC(=O)NCc2ccc(C(=N)N)cc2)cc1 for me?
39%

Entry N=C(N)c1ccc(CNC(=O)Cn2c(-c3ccc(-c4ccccc4)cc3)c(Cl)nc(NCCc3cccnc3)c2=O)cc1 [Example 21] has what IC50 or % Inhibition TF-VIIa (30 µM)?
8%@30

Reported IC50 or % Inhibition TF-VIIa (30 µM), compound N=C(N)c1ccc(CNC(=O)Cn2c(-c3ccc(-c4ccccc4)cc3)c(Cl)nc(NCCc3cccnc3)c2=O)cc1 [1471-72] : ____
15%

Reported IC50 or % Inhibition TF-VIIa (30 µM) for N=C(N)c1ccc(CNC(=O)Cn2c(-c3ccc(-c4ccccc4)cc3)c(Cl)nc(NCCc3cccc(Cl)c3)c2=O)cc1 : what is it?
10%

// provenance: patent EP1586565A1
